protocol summary: NCI Yeast Anticancer Drug Screen. Data for the mlh1 rad18 strain (AID 175)
measurement parameters: S. cerevisiae mlh1 rad18 strain growth inhibition; at 50.0 µM
Compounds without any hit were thinned out: in the full panel of roughly 79,000, 15% have a hit. Activity calls are given as the source filed them. Rule as the data show it: active = growth inhibition above about 70%; inactive = the rest.
Field 'call' accepts active, inactive

1. CCNP(=S)(OCC)OCC ... inactive
2. CC[C@@]1(O)C[C@H](OC2CC(N(C)C)C(O)C(C)O2)c2c(cc3c(c2O)C(=O)c2c(O)ccc(O)c2C3=O)[C@H]1C(=O)OC (stereo not given in full) ... active
3. CC1(C)CC(OP(=O)(Cl)OC2CC(C)(C)N(O)C(C)(C)C2)CC(C)(C)N1O ... inactive

So what was the verdict on CCCCCCCCCCNP(=S)(NCCCCCCCCCC)c1ccccc1 in this test?
inactive

Record lookup: outcome of this test for CC1(C)SC2C(NC(=O)COc3ccccc3)C(=O)N2C1C(=O)O (stereo not given) (tested in a mixture with another compound) ?
inactive

# lookup: test call for N.N.N.O=N[O-].O=N[O-].O=N[O-].[Co+3]
inactive

Hello, I am checking results. What call was entered for CC(C)N(C(=O)SCC(Cl)=C(Cl)Cl)C(C)C ?
inactive

Could you check what this test reported for NC(=O)c1cc([N+](=O)[O-])cc([N+](=O)[O-])c1 ?
inactive

Fill in: this test's call for CC(CN1CCCCCC1)C(C#N)(c1ccccc1)c1ccccc1 (stereo not given) is ___
inactive

Given C=C1CCC2CC1C2(C)C (stereo not given) (tested in a mixture with another compound) , state the outcome it received in this test.
inactive

---

protocol summary: NCI Yeast Anticancer Drug Screen. Data for the rad50 strain (AID 155);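 also: 0% = growth of vehicle-only cultures of the same strain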
measurement parameters: S. cerevisiae rad50 strain growth inhibition; at 5.0 µM (retest, dose inferred, filed as 0.5); stronger effect = higher value
About 79,000 compounds went through this panel and 15% of them were active in at least one assay; those are over-represented in the sample as a whole.
# Lookup of reported growth inhibition keyed by entry
// return numeric value only (unit: %, not printed)

1) CCCCCc1cc(/C=C2/N=C(c3ccc[nH]3)C=C2OC)[nH]c1C ... 47
2) CC(=O)[O-].O=[N+]([O-])c1ccc([O-])c(C=NCCN=Cc2cc([N+](=O)[O-])ccc2[O-])c1.[Mn+3] ... 15
3) O=C(O)C(CSC(c1ccccc1)c1ccccc1)NC(=O)C(c1ccccc1)c1ccccc1 (centres undefined) ... 6

growth inhibition lookup needed for CCCCCCCC[N+]12CN3CN(CN(C3)C1)C2 , thanks.
-5

Suppose we examine the compound Cc1cc(OC(=O)N(CCCl)CCCl)c(C(C)C)cc1N=O ; what growth inhibition value has been reported?
19

Which growth inhibition is listed for CC(=O)O[C@H]1CC[C@@]2(C)C(=CC[C@@H]3[C@@H]2CC[C@]2(C)C(=O)[C@@H](CN4CC4)C[C@@H]32)C1 ?
2

---

protocol summary: NCI Yeast Anticancer Drug Screen. Data for the mec2-1 strain (AID 157)
measurement parameters: S. cerevisiae mec2-1 strain, at 50.0 µM
About 79,000 compounds went through this panel and 15% of them were active in at least one assay; those are over-represented in the sample as a whole. Active and inactive are the calls of the source. Cut-off read from the data, not from the text of the source: active = growth inhibition above about 70%; inactive = the rest.
Permitted responses: active, inactive

Please review the following examples before continuing.
1) CCOC(=O)C(Cc1ccc(N(CCCl)CCCl)cc1)NC(=O)CNC(C)=O (configuration not stated) ... inactive
2) CCOP(=S)(OCC)OCC1OC(OC)C2OC(C)(C)OC12 (configuration not stated) ... inactive

Recorded test call requested for CCCC[As](CCCC)SC1CCC2(C)C(=CCC3C4CCC(=O)C4(C)CCC32)C1 (configuration not stated)
active

// outcome(item) with item = CCCC(=O)O.CCCC(=O)O.CCCC(=O)O.CCCC(=O)O.[Rh].[Rh]
inactive

Reference source: PubChem BioAssay (NCI)
